# target_or_test_system: pooled human IgG
Measured Enzyme Activity Endpoint Assay: scIgG values are reported for all entries that follow.
Answer format: numeric, ng/µL implied, no suffix.

Use these answered entries as a reference point.
{"columns": ["protein", "measurement_label", "observed"],
 "data": [
  ["PRT-546 (protein) MANQEIRYSEETPKTITSVWTKGVTPPTDFIKNEDVLHAPYIANQGWYDITKTFNGKDDLLCGAATAGNMLHWWFDQNKEEIENYLKKHPEKQKINFNGEQMFDVKEAIDTKDSQTDSALFEYFKDKAFPYLSTKHLGVFPDHVIDMFINGYRLSLTNHGPTPVKRGTKDPRGGIFDAVFTRGDQSKLLTSRHDFKEKTLNEISDLIKQELTEGKALGLSHTYANVRINHVINLWGADFNSEGNLEAIYVTDSDSNASIGMKKYYVGVNSAGKVAISAKEIEGDNIGAQVLGLFTLSTGQDIWEQTNLEHHHHHH", "Enzyme Activity Endpoint Assay: scIgG", 236],
  ["PRT-591 (protein) MANQEIRYSEETPSTITSVWTKGVTPPTDFIQNEDVLHAPYIANQGWYDITKTFNGKDDLLCGAATAGNMLHWWFDQNKEQIKNYLKKHPEKQKINFNGEQMFDVKEAIDTKDSQTDSALFEYFKDKAFPYLSTKHLGVFPDHVIDMFINGYRLSLTNHGPTPVKRGTKDPRGGIFDAVFTRGDQSKLLTSRHDFKEKTLNEISDLIKQELTEGKALGLSHTYANVRINHVINLWGADFNAEGNLEAIYVTDSDSNASIGMKKYYVGVNSAGKVAISAKEIEGDNIGAQVLGLFTLSTGQDIWNQTNLEHHHHHH", "Enzyme Activity Endpoint Assay: scIgG", 0]
]}

Look up Enzyme Activity Endpoint Assay: scIgG of PRT-42 (protein) MANQEIRYSEVTPYHVTSVWTKGVTPPANFTQGEDVFHAPYVANQGWYDITKTFNGKDDLLCGAATAGNMLHWWFDQNKDQIDRYLEEHPEKQKINFNGEQMFDVKEAIDTKNDQLDSKLFEYFKEKAFPYLSTKHLGVFPDLVIDMFINGYRLSLTNHGPTPVKEGSKDPRGGFFDAVFTRGDQSKLLTSRHDFKEKNLKEISDLIKKELTEGKALGLSHTYANVRINHVINLWGADFDSNGNLKAIYVTDSDSNASIGMKKYFVGVNSAGKVAISAKEIKEDNIGAQVLGLFTLSTGQDSWNQTN and report it.
53

Look up Enzyme Activity Endpoint Assay: scIgG of PRT-27 (protein) MANQEIRYSEVTPYHVTSVWTKGVTPPANFTQGEDVFHAPYVANQGWYDITKTFNGKDDLLCGAATAGNMLHWWFDQNKDQIKRYLEEHPEKQKINFNGEQMFDVKEAIDTKNHQTDSKLFEYFKEKAFPYLSTKHLGVFPDHVIDMFINGYRLSLTNHGPTPVKEGSKDPRGGIFDAVFTRGDQSKLLTSRHDFKEKNLKEISDLIKKELTEGKALGLSHTYANVRINHVINLWGADFDSNGNLEAIYVTDSDSNASIGMKKYFVGVNSAGKVAISAKEIKEDNIGAQVLGLFTLSTGQDSWNQTN and report it.
13
